# tested.on: Delta-type opioid receptor (Homo sapiens, UniProt P41143)
# Sequence (P41143 whole entry): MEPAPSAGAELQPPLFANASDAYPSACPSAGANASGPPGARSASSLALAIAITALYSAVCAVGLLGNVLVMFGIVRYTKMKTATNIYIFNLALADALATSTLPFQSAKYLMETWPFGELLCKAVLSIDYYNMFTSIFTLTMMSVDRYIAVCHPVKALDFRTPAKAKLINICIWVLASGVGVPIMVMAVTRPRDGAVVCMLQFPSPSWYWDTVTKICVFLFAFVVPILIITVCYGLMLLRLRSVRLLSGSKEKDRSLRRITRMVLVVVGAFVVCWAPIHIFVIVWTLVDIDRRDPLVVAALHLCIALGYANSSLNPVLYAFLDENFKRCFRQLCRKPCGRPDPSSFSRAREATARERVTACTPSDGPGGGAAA
# protocol.description: Agonist activity at human delta opioid receptor expressed in CHO cell membranes by [35S]GTPgammaS binding assay
log10 EC50: recorded values
measured.attribute: log10 EC50 (log10 of the value in nM)

> print(dat)
                            compound.smiles  numeric.readout
1  Oc1ccc2c(c1)[C@]13CCN(CC4CC4)C(C2)[C@]1(O)Cc1c([nH]c2ccccc12)C3             0.15
2  Oc1ccc2c(c1)[C@]13CCN(CC4CC4)C(C2)[C@]1(O)CCc1cc2ccccc2nc1C3             0.86
3  O=C1C[C@]23CCN(CC4CC4)C(Cc4ccc(O)cc42)[C@]3(O)CC/C1=C/c1ccccc1             0.26
4  O=C1C[C@]23CCN(CC4CC4)[C@H](Cc4ccc(O)cc42)[C@]3(O)C/C1=C/c1ccccc1             0.50
5  Oc1ccc2c(c1)[C@]13CCN(CC4CC4)C(C2)[C@]1(O)Cc1cc2ccccc2nc1C3            -0.09
6  Oc1ccc2c(c1)[C@]13CCN(CC4CC4)C(C2)[C@]1(O)CCc1c([nH]c2ccccc12)C3             0.03
7  O=C1C[C@]23CCN(CC4CC4)[C@H](Cc4ccc(O)cc42)[C@]3(O)C/C1=C\c1ccccc1             1.10
